target: human NMUR2 (human, UniProt Q9GZQ4 1-415); test: cell-based or functional assay
Sequence (Q9GZQ4 whole entry): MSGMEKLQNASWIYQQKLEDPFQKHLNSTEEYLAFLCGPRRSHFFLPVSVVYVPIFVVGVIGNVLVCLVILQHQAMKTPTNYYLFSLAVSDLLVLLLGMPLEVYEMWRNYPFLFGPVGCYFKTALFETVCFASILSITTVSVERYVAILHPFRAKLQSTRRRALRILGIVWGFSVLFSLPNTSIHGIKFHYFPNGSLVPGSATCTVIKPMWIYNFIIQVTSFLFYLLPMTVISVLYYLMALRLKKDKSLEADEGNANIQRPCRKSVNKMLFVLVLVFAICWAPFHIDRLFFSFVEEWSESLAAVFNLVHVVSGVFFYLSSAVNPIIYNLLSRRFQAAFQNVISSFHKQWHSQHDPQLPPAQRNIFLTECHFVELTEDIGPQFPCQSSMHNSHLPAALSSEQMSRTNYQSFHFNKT
Non-standard residues stand in square brackets, D forms with d. No end group written: not given here.
EXPERIMENTAL ENDPOINT: % activity (%)
Numeric answer only, unit % assumed.

Some binders with recorded % activity:
[
  {
    "BINDER": "YFGWRPRN-NH2 [neuromedin U receptor agonist C]",
    "UNIT OF MEASUREMENT": "%",
    "% activity": 0
  },
  {
    "BINDER": "Ac-F[dL]WRPRN-NH2 (SMILES CC(=O)N[C@@H](Cc1ccccc1)C(=O)N[C@H](CC(C)C)C(=O)N[C@@H](Cc1c[nH]c2ccccc12)C(=O)N[C@@H](CCCNC(=N)N)C(=O)N1CCC[C@H]1C(=O)N[C@@H](CCCNC(=N)N)C(=O)N[C@@H](CC(N)=O)C(N)=O) [neuromedin U receptor agonist E]",
    "UNIT OF MEASUREMENT": "%",
    "% activity": 1.8
  },
  {
    "BINDER": "FRVDEEFQSPFASQSRGYFWRPRN-NH2 [neuromedin U receptor agonist G]",
    "UNIT OF MEASUREMENT": "%",
    "% activity": 14
  }
]

Here is the next item to consider.
In: Fill in the blank: the reported % activity of YF[dL]WRPRN-NH2 (N-terminus assumed; SMILES CC(C)C[C@@H](NC(=O)[C@H](Cc1ccccc1)NC(=O)[C@@H](N)Cc1ccc(O)cc1)C(=O)N[C@@H](Cc1c[nH]c2ccccc12)C(=O)N[C@@H](CCCNC(=N)N)C(=O)N1CCC[C@H]1C(=O)N[C@@H](CCCNC(=N)N)C(=O)N[C@@H](CC(N)=O)C(N)=O) [neuromedin U receptor agonist B] is ____.
Out: 0

Data provenance is patent US20070244048A1.
